Ratio Ki values by entry
- system under test: Opioid receptors; mu & delta (Rattus norvegicus) (UniProt P33533+P33535)
- Sequence (P33533 whole entry, looked up): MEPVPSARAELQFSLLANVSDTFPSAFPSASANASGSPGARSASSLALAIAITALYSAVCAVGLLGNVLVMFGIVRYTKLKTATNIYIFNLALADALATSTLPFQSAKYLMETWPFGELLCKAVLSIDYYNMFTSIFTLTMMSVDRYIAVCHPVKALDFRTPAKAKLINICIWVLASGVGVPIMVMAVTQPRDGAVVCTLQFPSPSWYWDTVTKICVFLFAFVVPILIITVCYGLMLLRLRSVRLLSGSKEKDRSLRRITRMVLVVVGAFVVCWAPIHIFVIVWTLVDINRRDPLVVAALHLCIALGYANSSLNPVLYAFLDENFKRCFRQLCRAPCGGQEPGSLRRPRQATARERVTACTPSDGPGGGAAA
- Sequence (P33535 whole entry, looked up): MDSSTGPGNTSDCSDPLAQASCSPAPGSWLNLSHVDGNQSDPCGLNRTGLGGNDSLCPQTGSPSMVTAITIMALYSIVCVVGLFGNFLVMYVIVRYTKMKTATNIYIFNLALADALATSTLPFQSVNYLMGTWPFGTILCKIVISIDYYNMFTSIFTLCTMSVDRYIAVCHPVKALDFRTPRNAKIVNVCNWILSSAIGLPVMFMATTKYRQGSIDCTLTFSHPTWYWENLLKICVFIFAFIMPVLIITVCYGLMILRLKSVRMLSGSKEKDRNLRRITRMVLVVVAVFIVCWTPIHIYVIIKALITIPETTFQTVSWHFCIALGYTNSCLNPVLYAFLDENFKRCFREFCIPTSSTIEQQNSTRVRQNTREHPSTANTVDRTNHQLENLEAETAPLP
- experimental protocol: Selectivity ratio of rat mu opioid receptor over rat delta opioid receptor
- Format: protein assay
Lab note: record the figure alone, no unit after it.

compound	measurement type	assay result
Cc1cc(O)cc(C)c1C[C@H](N)C(=O)N1Cc2ccccc2CC1C(=O)NCCCc1nc(O)c(CCCNC(=O)C2Cc3ccccc3CN2C(=O)[C@@H](N)Cc2c(C)cc(O)cc2C)nc1C (some centres undefined)	Ratio Ki	20
Cc1cc(O)cc(C)c1C[C@H](N)C(=O)N1Cc2ccccc2CC1C(=O)NCc1nc(O)c(CNC(=O)C2Cc3ccccc3CN2C(=O)[C@@H](N)Cc2c(C)cc(O)cc2C)nc1C (some centres undefined)	Ratio Ki	23
Cc1cc(O)cc(C)c1C[C@@H](C(=O)N1Cc2ccccc2CC1C(=O)NCCCc1nc(O)c(CCCNC(=O)C2Cc3ccccc3CN2C(=O)[C@H](Cc2c(C)cc(O)cc2C)N(C)C)nc1C)N(C)C (some centres undefined)	Ratio Ki	6

Request: Supply Ratio Ki value. Item: Cc1cc(O)cc(C)c1C[C@H](N)C(=O)N1Cc2ccccc2CC1C(=O)NCCCCc1nc(O)c(CCCCNC(=O)C2Cc3ccccc3CN2C(=O)[C@@H](N)Cc2c(C)cc(O)cc2C)nc1C (some centres undefined)
Response: 5
